assayed-system: EGFR exon 20 ASV Ins V769_D770 (Ba/F3 cells) (Homo sapiens, UniProt P00533, INS769ASV)
Construct: expressed in transfected cells; host or cells: Ba/F3 (murine pro-B cells), retroviral transduction, puromycin selection, IL3-independent pool
Sequence (P00533 with tags, fused parts or gaps INS769ASV): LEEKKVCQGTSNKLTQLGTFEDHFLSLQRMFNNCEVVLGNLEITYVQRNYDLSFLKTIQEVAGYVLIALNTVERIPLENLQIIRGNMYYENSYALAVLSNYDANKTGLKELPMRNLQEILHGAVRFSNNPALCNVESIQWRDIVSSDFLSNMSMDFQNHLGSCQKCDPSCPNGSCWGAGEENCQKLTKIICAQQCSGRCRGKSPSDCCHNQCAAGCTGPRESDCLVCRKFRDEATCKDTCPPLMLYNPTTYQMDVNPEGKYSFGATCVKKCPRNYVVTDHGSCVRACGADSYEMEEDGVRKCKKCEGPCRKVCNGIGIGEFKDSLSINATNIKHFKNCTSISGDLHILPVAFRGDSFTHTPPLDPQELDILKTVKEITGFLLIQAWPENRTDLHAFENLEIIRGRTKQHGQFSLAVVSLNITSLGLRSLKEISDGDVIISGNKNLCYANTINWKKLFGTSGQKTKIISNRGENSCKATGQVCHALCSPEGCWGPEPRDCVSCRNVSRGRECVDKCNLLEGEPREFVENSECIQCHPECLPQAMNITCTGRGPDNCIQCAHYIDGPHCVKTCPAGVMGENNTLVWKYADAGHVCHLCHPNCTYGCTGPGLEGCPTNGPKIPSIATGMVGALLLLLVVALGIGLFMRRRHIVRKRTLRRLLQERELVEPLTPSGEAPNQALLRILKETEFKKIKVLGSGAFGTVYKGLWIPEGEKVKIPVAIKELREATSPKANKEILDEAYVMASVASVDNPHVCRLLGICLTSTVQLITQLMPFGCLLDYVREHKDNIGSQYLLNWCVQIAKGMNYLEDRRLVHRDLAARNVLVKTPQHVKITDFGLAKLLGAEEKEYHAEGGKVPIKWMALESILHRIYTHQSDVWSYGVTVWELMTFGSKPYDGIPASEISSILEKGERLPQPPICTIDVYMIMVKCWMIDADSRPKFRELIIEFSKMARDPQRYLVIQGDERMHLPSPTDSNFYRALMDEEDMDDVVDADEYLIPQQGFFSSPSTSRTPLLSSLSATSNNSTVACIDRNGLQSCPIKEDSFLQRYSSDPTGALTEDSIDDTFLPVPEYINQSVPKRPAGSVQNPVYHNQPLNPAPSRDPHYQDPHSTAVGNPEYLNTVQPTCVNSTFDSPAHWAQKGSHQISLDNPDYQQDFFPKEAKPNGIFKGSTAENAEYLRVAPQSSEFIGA
assay-comment: Inhibitor activity on EGFR-dependent cell growth (CellTiter-Glo, 72 h), Ba/F3 EGFR exon 20 ASV Ins
Assay type: cell-based
condition-label: read-out: BaF3 ASV IC50
result-type: IC50

Nc1nccc(-c2[nH]c3c(c2Nc2cccc4ccoc24)C(=O)NCC3)n1; > 1000 nM

Batch request: IC50 per item, same order as input.
1. COCC[C@@H]1CNC(=O)c2c1[nH]c(-c1ccnc(C)n1)c2Nc1cccc(Cl)c1OC [463a]
2. C=CC(=O)N1CCC(Oc2nc3c(-c4[nH]c5c(c4Nc4cccc(Cl)c4OC)C(=O)NCC5)ccnc3cc2OC)CC1
3. COc1c(Cl)cccc1Nc1c(-c2ccnc3ccc(OC(C)C)nc23)[nH]c2c1C(=O)NCC2
4. COc1c(Cl)cccc1Nc1c(-c2ccnc3ccc(OCC4(C(F)(F)F)CC4)nc23)[nH]c2c1C(=O)NCC2
5. C=CC(=O)N1CC[C@@]2(CNC(=O)c3c2[nH]c(-c2ccncc2F)c3Nc2cccc(Cl)c2OC)C1
6. C=CC(=O)N1CCC2(CC1)CNC(=O)c1c2[nH]c(-c2ccncc2F)c1Nc1ccc(Cl)c(F)c1

1: 100 to 1000 nM; 2: < 100 nM; 3: < 100 nM; 4: 100 to 1000 nM; 5: 100 to 1000 nM; 6: < 100 nM

Values were extracted from patent US20240101576A1.
